Every entry's value here was drawn from PubChem BioAssay (NCATS).

Assay: Cytotoxicity counterscreen for inhibitors of SARS-CoV-2 cell entry (AID 1645845); further: nearly all actives have a fitted effect of over 50% in size
Conditions: cell viability (SARS-CoV-2 entry assay cells); series mostly up to 57.1 µM
Inconclusive results are not listed. The source made the active and inactive calls. The call rests on the fitted dose curve.
API: response.call in active, inactive

# example entries with known answers
| COMPOUND | GROUP LABEL |
| --- | --- |
| COC(=O)c1ccccc1O | inactive |
| CNC(C)[C@@H](O)c1ccc(O)cc1 (stereo not given in full) | inactive |
| CC(C)S(=O)(=O)c1ccc2nccc(Nc3ccc4scnc4c3)c2c1 | inactive |
| Clc1ccc(-c2nc3sccn3c2/C=N/OCc2ccc(Cl)c(Cl)c2)cc1 | inactive |
| COc1ccc(Cl)cc1-c1cc(=O)[nH]c(=S)n1CC(N)=O | inactive |
| N#CCC1(n2cc(-c3ncnc4[nH]ccc34)cn2)CN(C2CCN(C(=O)c3ccnc(C(F)(F)F)c3F)CC2)C1 | inactive |
| CN1CCN(c2ccc(C(=O)Nc3n[nH]c4ccc(Cc5cc(F)cc(F)c5)cc34)c(NC3CCOCC3)c2)CC1 | active |
| Cc1cccc(-c2nn3c(c2-c2ccnc4ccc(C(N)=O)cc24)CCC3)n1 | inactive |
| CC(Oc1ccccc1)C(=O)N[C@@H]1C(=O)N2[C@@H]1SC(C)(C)[C@@H]2C(=O)O (stereo not given in full) | inactive |

Here is the next item to consider.
IN: How was C[C@H]1COCCN1c1cc(C2(S(=O)(=O)C3CC3)CC2)nc(-c2ccc(NC(=S)NCCO)cc2)n1 classified in this test?
OUT: inactive

----------
Molecular target: Rap guanine nucleotide exchange factor 3 (Homo sapiens) (UniProt O95398)
Experiment: Counterscreen qHTS for agonist of cAMP-regulated guanine nucleotide exchange factor 3 (EPAC1) (AID 1645889); further: % of control where 0% means no effect; nearly all actives have a fitted effect of over 40% in size
Conditions: EPAC1 Rap1B-BODIPY-GDP exchange, fluorescence; series mostly up to 154 µM
From the text: Assay Provider (PI): Xiaodong Cheng Ph.D. The University of Texas Medical Branch, […], TX MLPCN Grant: NS066510 In multi-cellular eukaryotic organisms, the effects of cAMP are transduced by two ubiquitously-expressed intracellular cAMP receptors, the classic protein kinase A/cAMP-dependent protein kinase (PKA/cAPK) and the more recently discovered exchange protein directly activated by cAMP/cAMP-regulated guanine nucleotide exchange factor (EPAC/cAMP-GEF). […]
Results filed as inconclusive are left out. Activity calls are given as the source filed them. Calls follow the shape of the dose curve; as a rule, active = well fitted activation curve with a large enough effect; inconclusive = small, poorly fitted or top-dose-only effect, or another doubt; inactive = no such curve, though single readings can be large or run the other way.
PARAMETER MEASURED: activation

| MOLECULE | activation |
| --- | --- |
| CN1C(=O)/C(=C/c2cccn2-c2ccc3ccccc3c2)C(=O)NC1=S | inactive |
| O=C1NCN(c2ccccc2)C12CCN(C(c1cc3ccccc3o1)c1nnnn1C1CCCCC1)CC2 (stereo unspecified) | inactive |
| COC(=O)C1=C(c2cc3ccccc3s2)C[C@@H]2CC[C@H]1N2C(=O)NC1CC1 | inactive |
| COC(=O)C1=C(c2cc3ccccc3s2)C[C@@H]2CC[C@H]1N2C(=O)NCc1ccc(C(F)(F)F)cc1 | inactive |

From here, focus on the item given below.
IN: Fill in: activation of O=C1NC(=O)N(CCc2ccc(F)cc2)C(=O)/C1=C/c1ccco1 is ___
OUT: 10.6% [at 30.8 µM] (inactive)

----------
Molecular target: Peroxisome proliferator-activated receptor delta (Homo sapiens) (UniProt Q03181)
Sequence (Q03181 whole entry, looked up): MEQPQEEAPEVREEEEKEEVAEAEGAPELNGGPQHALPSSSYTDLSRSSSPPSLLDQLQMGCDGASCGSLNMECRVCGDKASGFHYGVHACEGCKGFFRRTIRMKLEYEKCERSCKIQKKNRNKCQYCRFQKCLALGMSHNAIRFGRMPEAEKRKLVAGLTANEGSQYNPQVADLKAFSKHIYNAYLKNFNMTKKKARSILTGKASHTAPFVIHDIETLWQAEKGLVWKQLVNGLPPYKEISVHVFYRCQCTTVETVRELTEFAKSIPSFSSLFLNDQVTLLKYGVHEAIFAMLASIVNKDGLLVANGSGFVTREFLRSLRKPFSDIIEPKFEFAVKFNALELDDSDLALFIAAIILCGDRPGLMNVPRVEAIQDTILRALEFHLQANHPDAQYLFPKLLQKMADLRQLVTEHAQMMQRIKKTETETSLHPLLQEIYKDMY
Assay: qHTS assay for small molecule agonists of peroxisome proliferator-activated receptor delta signaling (AID 588534);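 further: 0% = DMSO basal wells and 100% = positive control agonist at 10 µM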
Conditions: HEK293T PPARdelta-UAS-bla, beta-lactamase ratio, 18 h; series mostly up to 76.7 µM
Excerpt: NIH Chemical Genomics Center [NCGC] U.S. Environmental Protection Agency [EPA] National Institutes of Environmental Health Sciences [NIEHS] National Toxicology Program [NTP] […] Compounds were screened in a titration series in 1536-well format. […] Detection; Fluorescence; Envision plate reader
Records with an inconclusive call do not appear. Active and inactive are the calls of the source. The call rests on the fitted dose curve.
PARAMETER MEASURED: outcome

Worked set:
| COMPOUND | outcome |
| --- | --- |
| c1ccc2ccccc2c1 | inactive |
| OCC1CO1 (centres undefined) | inactive |
| COP(N)(=O)SC (centres undefined) | inactive |
| CCOP(=S)(OCC)Oc1ccc([N+](=O)[O-])cc1 | inactive |
| CCOc1ccc(N)cc1 | inactive |

IN: Fill in: outcome of CCCSC(=O)Cl is ___
OUT: inactive

IN: Again, but for ClC(Cl)(Cl)c1ccccc1
OUT: inactive

IN: Again, but for CNC(=O)O/N=C/C(C)(C)SC
OUT: inactive

IN: Again, but for COC1=CC(=O)O[C@@H](/C=C/c2ccc3c(c2)OCO3)C1
OUT: inactive
